- measurementTarget: UniProt:Q13191
- Sequence (Q13191 40-426): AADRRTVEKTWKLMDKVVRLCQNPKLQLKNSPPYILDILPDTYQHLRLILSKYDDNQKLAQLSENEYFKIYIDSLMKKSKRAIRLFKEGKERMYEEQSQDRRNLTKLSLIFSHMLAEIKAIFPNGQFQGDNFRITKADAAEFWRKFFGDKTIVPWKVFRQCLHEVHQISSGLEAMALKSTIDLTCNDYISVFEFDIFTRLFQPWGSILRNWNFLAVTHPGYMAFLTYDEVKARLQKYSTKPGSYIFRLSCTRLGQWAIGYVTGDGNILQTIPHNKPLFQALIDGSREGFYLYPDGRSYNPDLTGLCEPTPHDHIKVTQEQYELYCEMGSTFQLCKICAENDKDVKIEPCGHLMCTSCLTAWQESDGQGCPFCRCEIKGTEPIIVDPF
- assayComment: Cbl-b LCK Ub TR-FRET assay (Cbl-b Lck HTRF)
- Type: biochemical
- conditionSet: read-out: Cbl-b Lck HTRF IC50
I'd be grateful if you could share measured IC50 for these entries.
Give bare numbers, in µM.

CC(C)[C@H]1CN(C)CCN1Cc1cc(C(=O)Nc2cccc(C3(Cc4nncn4C)COC3)c2)nc(C2CC2)c1 ... 0.01
C[C@H](Cc1nncn1C)c1cccc(NC(=O)c2nc(C(F)(F)F)c(CN3CCC4(CC4)C3)[nH]2)c1 ... 1.5
C[C@H](c1cc(C(=O)Nc2cccc(C3(Cc4nncn4C)COC3)c2)nc(C(F)(F)F)c1)N1CC(F)C1 ... 0.22
C[C@H](c1cc(C(=O)Nc2cccc(C3([C@@H](F)c4nncn4C)COC3)c2)nc(C2CC2)c1)N1CCC2(CC2)C1 ... 0.05
C[C@@H](c1cc(C(=O)Nc2cccc(C3([C@@H](F)c4nncn4C)COC3)c2)nc(C2CC2)c1)N1CC(C)(F)C1 ... 0.23

# map each molecule to its IC50
1. Cn1cnnc1[C@@H](F)[C@](C)(F)c1cccc(NC(=O)c2cc(CN3CCC4(CC4)C3)cc(C3CC3)n2)c1
2. Cn1cnnc1[C@@H](F)C(C)(F)c1cccc(NC(=O)c2cc(CN3CC(C)(F)C3)nc(C3CC3)n2)c1 (stereo in doubt) [Compound 45]
3. Cn1cnnc1[C@H](F)C1(c2cccc(NC(=O)c3cc(CN4CCC5(CC5)C4)cc(C4CC4)n3)c2)COC1
4. CN(C)Cc1cc(C(=O)Nc2cccc(C3(Cc4nncn4C)COC3)c2)nc(C(F)(F)F)c1
5. Cn1cnnc1[C@@H](F)C1(c2cccc(NC(=O)c3cc(CN4CCC5(CC5)C4)cc(C4CC4)n3)c2)COC1
6. C[C@H](c1cc(C(=O)Nc2cccc(C3([C@H](F)c4nncn4C)COC3)c2)nc(C2CC2)c1)N1CCC2(CC2)C1

1. 0.025
2. 12
3. 0.019
4. 0.21
5. 0.02
6. 0.02
